Where these numbers come from: ChEMBL document CHEMBL1909046

# tested system: Thromboxane-A synthase (Homo sapiens);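 further: enzyme inhibition assay with PGH2 supplied as substrate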; further: in other assays of this panel Not Active means under 50% inhibition at 10 µM
# Sequence (P24557 whole entry): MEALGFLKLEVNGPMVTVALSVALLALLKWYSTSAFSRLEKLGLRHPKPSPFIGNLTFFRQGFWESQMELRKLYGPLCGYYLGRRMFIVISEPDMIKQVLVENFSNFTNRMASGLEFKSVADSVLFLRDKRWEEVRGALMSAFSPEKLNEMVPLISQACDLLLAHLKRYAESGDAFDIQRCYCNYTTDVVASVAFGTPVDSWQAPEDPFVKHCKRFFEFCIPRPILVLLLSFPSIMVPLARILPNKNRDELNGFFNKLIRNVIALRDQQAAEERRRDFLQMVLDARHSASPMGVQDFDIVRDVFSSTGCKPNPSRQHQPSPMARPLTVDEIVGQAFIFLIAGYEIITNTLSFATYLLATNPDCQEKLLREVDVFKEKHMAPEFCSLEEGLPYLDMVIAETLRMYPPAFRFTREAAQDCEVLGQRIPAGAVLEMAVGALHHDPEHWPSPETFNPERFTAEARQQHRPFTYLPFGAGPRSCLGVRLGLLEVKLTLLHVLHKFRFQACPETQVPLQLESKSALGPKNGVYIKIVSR
# assay details: biochemical
# Format: tissue-based, Platelet
# test parameters: platelet
reported property: IC50

The following compounds have reported results that may help.
# compound, IC50
measured = [
    ("CC(=O)OCC(=O)[C@@]1(OC(C)=O)[C@@H](C)C[C@H]2[C@@H]3C[C@H](F)C4=CC(=O)C=C[C@]4(C)[C@@]3(F)[C@@H](O)C[C@@]21C [DIFLORASONE DIACETATE]", "Not Active"),
    ("COC(=O)[C@H](c1ccccc1Cl)N1CCc2sccc2C1", "Not Active"),
    ("CC[N+](CC)(CC)CCOc1cccc(OCC[N+](CC)(CC)CC)c1OCC[N+](CC)(CC)CC.[I-].[I-].[I-] [GALLAMINE TRIETHIODIDE]", "Not Active"),
    ("O=C1CN=C(c2ccccc2)c2cc([N+](=O)[O-])ccc2N1", "Not Active"),
    ("NCC(=O)O", "Not Active"),
]

Ask: # IC50 lookup, item CCOC(=O)OC(C)OC1=C(C(=O)Nc2ccccn2)N(C)S(=O)(=O)c2ccccc21 (stereo not drawn)
Reply: Not Active

Ask: # IC50 lookup, item CC(=O)CCCCn1c(=O)c2c(ncn2C)n(C)c1=O
Reply: Not Active

Ask: # IC50 lookup, item Nc1ccc(S(N)(=O)=O)cc1 [SULFANILAMIDE]
Reply: Not Active

---

# tested system: UniProt:P13945
# Sequence (P13945 whole entry): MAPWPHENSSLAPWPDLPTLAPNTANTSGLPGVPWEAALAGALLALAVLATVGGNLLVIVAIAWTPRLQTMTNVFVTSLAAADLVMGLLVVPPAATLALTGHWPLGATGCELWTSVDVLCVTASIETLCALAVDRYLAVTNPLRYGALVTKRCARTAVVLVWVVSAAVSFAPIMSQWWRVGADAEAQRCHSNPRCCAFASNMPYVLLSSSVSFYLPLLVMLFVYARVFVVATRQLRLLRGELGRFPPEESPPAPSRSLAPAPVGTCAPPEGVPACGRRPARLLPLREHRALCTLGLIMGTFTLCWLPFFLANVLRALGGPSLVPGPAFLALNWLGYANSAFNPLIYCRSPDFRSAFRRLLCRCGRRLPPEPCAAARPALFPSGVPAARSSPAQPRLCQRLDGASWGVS
# assay details: DRUGMATRIX: Adrenergic beta3 radioligand binding (ligand: [125I] Cyanopindolol)
# Assay type: cell membranes, HEK293, Membrane
# test parameters: Not Active = under 50% inhibition at 10 µM; read-out: Ki
reported property: Ki (µM)
// return numeric value only (unit: µM, not printed)

The following compounds have reported results that may help.
# smiles notation, tested system, Ki (µM)
measured = [
    ("Clc1ccccc1C(c1ccccc1)(c1ccccc1)n1ccnc1", "UniProt:P13945", 5.41),
    ("CC(C)(O)c1ccccc1CC[C@@H](SCC1(CC(=O)O)CC1)c1cccc(/C=C/c2ccc3ccc(Cl)cc3n2)c1", "UniProt:P13945", 3.2),
]

API: the following record is the query input.
Ask: # Ki lookup, item CCCCCCCCCc1ccc(O)cc1
Reply: 3.14

---

# tested system: Neuropeptide Y receptor type 1 (Homo sapiens); further: in other assays of this panel Not Active means under 50% inhibition at 10 µM
# Sequence (P25929 whole entry): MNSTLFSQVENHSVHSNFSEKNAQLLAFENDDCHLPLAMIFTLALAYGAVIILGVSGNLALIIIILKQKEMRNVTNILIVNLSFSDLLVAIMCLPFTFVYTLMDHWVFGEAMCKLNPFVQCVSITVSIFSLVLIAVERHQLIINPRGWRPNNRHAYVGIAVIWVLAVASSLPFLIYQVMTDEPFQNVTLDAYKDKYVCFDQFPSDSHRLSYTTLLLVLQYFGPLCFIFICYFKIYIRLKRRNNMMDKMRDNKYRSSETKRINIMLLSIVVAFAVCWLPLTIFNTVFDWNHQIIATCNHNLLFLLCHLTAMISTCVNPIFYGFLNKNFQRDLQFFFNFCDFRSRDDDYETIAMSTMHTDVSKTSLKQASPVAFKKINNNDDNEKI
# Format: cell membranes, Membrane
# test parameters: sk-n-mc
reported property: IC50

# compound, result
rows = [
    ("CO[C@@H]1[C@@H](O[C@@H]2O[C@H](C)[C@@H](O[C@H]3C[C@@](C)(O)[C@@H](OC(=O)CC(C)C)[C@H](C)O3)[C@H](N(C)C)[C@H]2O)[C@@H](CC=O)C[C@@H](C)[C@@H](O)/C=C/C=C/C[C@@H](C)OC(=O)C[C@H]1O", "Not Active"),
    ("NS(=O)(=O)c1cc2c(cc1Cl)NCNS2(=O)=O [HYDROCHLOROTHIAZIDE]", "Not Active"),
    ("COS(C)(=O)=O", "Not Active"),
]

---

# tested system: Caspase-1 (Homo sapiens);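 further: Caspase-1 enzyme inhibition assay with a peptide substrate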; further: in other assays of this panel Not Active means under 50% inhibition at 10 µM
# Sequence (P29466 120-297 limits assumed): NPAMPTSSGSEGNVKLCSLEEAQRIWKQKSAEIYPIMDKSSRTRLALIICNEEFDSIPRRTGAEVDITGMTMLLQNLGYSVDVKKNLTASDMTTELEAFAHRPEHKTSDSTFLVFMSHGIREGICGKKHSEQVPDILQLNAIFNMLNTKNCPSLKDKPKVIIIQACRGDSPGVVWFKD
# Sequence (P29466 317-404 limits assumed): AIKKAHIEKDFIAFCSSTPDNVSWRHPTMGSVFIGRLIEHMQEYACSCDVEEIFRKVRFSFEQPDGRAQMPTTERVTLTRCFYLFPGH
# Set-up: species or system Escherichia coli
reported property: IC50

The following compounds have reported results that may help.
# compound, IC50
measured = [
    ("Oc1c(Cl)cc(Cl)cc1Sc1cc(Cl)cc(Cl)c1O", "Not Active"),
    ("CCC[C@@H]1C[C@@H](C(=O)N[C@@H]([C@H]2O[C@H](SC)[C@H](O)[C@@H](O)[C@H]2O)[C@@H](C)O)N(C)C1", "Not Active"),
    ("Fc1ccc([C@@H]2CCNC[C@H]2COc2ccc3c(c2)OCO3)cc1", "Not Active"),
    ("Nc1ccc(S(=O)(=O)Nc2ccnn2-c2ccccc2)cc1", "Not Active"),
    ("O=C(O)c1cn(C2CC2)c2cc(N3CCNCC3)c(F)cc2c1=O", "Not Active"),
]

Ask: # IC50 lookup, item C=C1CC[C@H](O)C/C1=C/C=C1\CCC[C@]2(C)[C@@H]([C@H](C)/C=C/[C@H](C)C(C)C)CC[C@@H]12
Reply: Not Active

Ask: # IC50 lookup, item c1ccc2[nH]c(-c3cscn3)nc2c1
Reply: Not Active

Ask: # IC50 lookup, item Cc1ccccc1N1CCN(CCc2nnc3n2CCCC3)CC1
Reply: Not Active

Ask: # IC50 lookup, item NS(=O)(=O)c1cc2c(cc1Cl)NCNS2(=O)=O [HYDROCHLOROTHIAZIDE]
Reply: Not Active

Ask: # IC50 lookup, item N#C[C@H](O[C@@H]1O[C@H](CO[C@@H]2O[C@H](CO)[C@@H](O)[C@H](O)[C@H]2O)[C@@H](O)[C@H](O)[C@H]1O)c1ccccc1
Reply: Not Active

Ask: # IC50 lookup, item CC1CN(c2cc3c(cc2F)c(=O)c(C(=O)O)cn3-c2ccc(F)cc2F)CCN1 (configuration not stated)
Reply: Not Active

Ask: # IC50 lookup, item CC(C)(C)NCC(O)c1ccc(O)c(CO)c1 (configuration not stated)
Reply: Not Active

Ask: # IC50 lookup, item CC(=O)CCCCn1c(=O)c2c(ncn2C)n(C)c1=O
Reply: Not Active

Ask: # IC50 lookup, item CN1C(C(=O)Nc2ccccn2)=C(O)c2ccccc2S1(=O)=O
Reply: Not Active

Ask: # IC50 lookup, item CNC(=O)Oc1ccc2c(c1)[C@]1(C)CCN(C)[C@@H]1N2C
Reply: Not Active

Ask: # IC50 lookup, item CC(C)(O)c1ccccc1CC[C@@H](SCC1(CC(=O)O)CC1)c1cccc(/C=C/c2ccc3ccc(Cl)cc3n2)c1
Reply: Not Active

Ask: # IC50 lookup, item CCc1ccc(C(=O)C(C)CN2CCCCC2)cc1 (configuration not stated)
Reply: Not Active

---

# assay details: DRUGMATRIX: Nicotinic Acetylcholine radioligand binding (ligand: [125I] Epibatidine)
# Type: cell membranes, Membrane
# test parameters: imr-32; Not Active = under 50% inhibition at 10 µM; read-out: Ki
reported property: pKi
pKi here: minus log base 10 of the concentration, concentration in moles per litre.

Ask: # pKi lookup, item CN1CCC[C@H]1c1cccnc1
Reply: 8.38

---

# assay details: DRUGMATRIX: beta-Lactamase enzyme inhibition (substrate: Nitrocefin)
# Set-up: species or system Bacillus cereus
# test parameters: Not Active = under 50% inhibition at 10 µM
reported property: IC50

# compound, IC50
rows = [
    ("CN(C)[C@@H]1C(O)=C(C(N)=O)C(=O)[C@@]2(O)C(O)=C3C(=O)c4c(O)cccc4[C@@](C)(O)[C@H]3C[C@@H]12", "Not Active"),
    ("CN(C)CCCC1(c2ccc(F)cc2)OCc2cc(C#N)ccc21 (stereo not drawn)", "Not Active"),
    ("O=C1CN=C(c2ccccc2)c2cc([N+](=O)[O-])ccc2N1", "Not Active"),
    ("CC(=O)OCC(=O)[C@@]1(OC(C)=O)[C@@H](C)C[C@H]2[C@@H]3C[C@H](F)C4=CC(=O)C=C[C@]4(C)[C@@]3(F)[C@@H](O)C[C@@]21C [DIFLORASONE DIACETATE]", "Not Active"),
    ("CC(=O)S[C@@H]1CC2=CC(=O)CC[C@]2(C)[C@H]2CC[C@@]3(C)[C@@H](CC[C@@]34CCC(=O)O4)[C@H]12", "Not Active"),
]

Ask: # IC50 lookup, item CC(C)(S)[C@@H](N)C(=O)O
Reply: Not Active

Ask: # IC50 lookup, item Cn1cnc([N+](=O)[O-])c1Sc1ncnc2nc[nH]c12
Reply: Not Active

Ask: # IC50 lookup, item NS(=O)(=O)c1cc2c(cc1Cl)NCNS2(=O)=O [HYDROCHLOROTHIAZIDE]
Reply: Not Active

Ask: # IC50 lookup, item C/C=C1\[C@H]2C=C(C)C[C@]1(N)c1ccc(=O)[nH]c1C2
Reply: Not Active

Ask: # IC50 lookup, item COc1c(C)c2c(c(O)c1C/C=C(\C)CCC(=O)OCCN1CCOCC1)C(=O)OC2 [MYCOPHENOLATE MOFETIL]
Reply: Not Active

Ask: # IC50 lookup, item CC(C)(C)NC(=O)[C@@H]1CN(Cc2cccnc2)CCN1C[C@@H](O)C[C@@H](Cc1ccccc1)C(=O)N[C@H]1c2ccccc2C[C@H]1O.O
Reply: Not Active
